Target: T1, EsCas13d, nuclease-dead (Eubacterium siraeum, UniProt B0MS50, R295A;H300A;R849A;H854A)
T1 sequence: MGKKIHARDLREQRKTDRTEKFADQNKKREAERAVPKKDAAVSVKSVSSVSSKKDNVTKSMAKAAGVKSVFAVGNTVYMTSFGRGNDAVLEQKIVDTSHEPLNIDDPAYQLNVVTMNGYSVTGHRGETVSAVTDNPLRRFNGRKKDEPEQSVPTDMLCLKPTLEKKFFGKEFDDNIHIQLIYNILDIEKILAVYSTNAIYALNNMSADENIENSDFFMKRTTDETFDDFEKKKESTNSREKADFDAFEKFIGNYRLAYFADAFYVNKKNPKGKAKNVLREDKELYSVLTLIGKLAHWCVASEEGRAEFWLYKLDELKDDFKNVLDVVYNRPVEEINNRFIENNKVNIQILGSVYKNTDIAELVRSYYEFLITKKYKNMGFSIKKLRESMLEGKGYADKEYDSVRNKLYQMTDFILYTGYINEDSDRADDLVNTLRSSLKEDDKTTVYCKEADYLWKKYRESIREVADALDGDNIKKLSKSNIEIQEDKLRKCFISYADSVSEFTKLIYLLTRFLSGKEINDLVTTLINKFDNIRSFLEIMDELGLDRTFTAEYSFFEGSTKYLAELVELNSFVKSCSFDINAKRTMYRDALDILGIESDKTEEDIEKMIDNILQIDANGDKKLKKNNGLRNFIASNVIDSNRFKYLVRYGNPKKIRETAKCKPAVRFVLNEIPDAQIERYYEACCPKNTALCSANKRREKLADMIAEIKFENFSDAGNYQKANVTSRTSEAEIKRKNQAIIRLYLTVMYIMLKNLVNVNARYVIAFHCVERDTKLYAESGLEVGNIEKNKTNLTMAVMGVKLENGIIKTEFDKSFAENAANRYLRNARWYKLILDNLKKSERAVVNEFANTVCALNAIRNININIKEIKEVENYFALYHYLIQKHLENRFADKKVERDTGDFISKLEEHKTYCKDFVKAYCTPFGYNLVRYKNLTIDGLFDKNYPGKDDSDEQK
Assay: crRNA (strand 1, pre-loaded); Mg2+; 40 mM Tris-HCl pH 7.5, 150 mM NaCl, 6 mM MgCl2, 1 mM DTT, 0.1% Tween-20, 0.2 mg/ml BSA; 25 C; 10 min per concentration, then washed
Conditions: tags: His6-TwinStrep-SUMO cleaved; N-terminal SNAP kept (SNAP-Surface 488); label: 3' end held by stalled T7 RNA polymerase
pKd: −log10 of the molar value.
readout.kind: pKd

Q: Need pKd of target 1 MT 5'PFS AGG 3'PFS UGC (mixed) RNA 1: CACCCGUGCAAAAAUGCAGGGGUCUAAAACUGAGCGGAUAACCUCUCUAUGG RNA 2: GGGAAUGGAUCCACAUCUACGAAUUCAGGCCAUAGAGAGGUUAUCCGCUCAUGCAGAUCGGAAGAGCACACGU , thanks.
Ans: ~6.96

Q: Need pKd of target 1 G5A,G17U (mixed) RNA 1: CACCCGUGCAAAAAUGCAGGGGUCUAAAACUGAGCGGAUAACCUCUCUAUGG RNA 2: GGGAAUGGAUCCACAUCUACGAAUUCGUACCAUAUAGAGGUUAUCCACUCACCGAGAUCGGAAGAGCACACGU , thanks.
Ans: ~7.00

Q: Need pKd of target 2 MT 5'PFS UCG 3'PFS AUC (mixed) RNA 1: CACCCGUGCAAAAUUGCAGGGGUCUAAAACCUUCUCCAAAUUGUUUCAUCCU RNA 2: GGGAAUGGAUCCACAUCUACGAAUUCUCGAGGAUGAAACAAUUUGGAGAAGAUCAGAUCGGAAGAGCACACGU , thanks.
Ans: ~7.15
